Entry source: PubChem BioAssay

test: small-molecule binders of probe aInhba, primary screen, biochemical, small-molecule microarray, 635/667 nm fluorescence (AID 1148); conditions: higher = more signal;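 also: score merges 667nm spot fluorescence with signal-to-noise for antibody binding to printed compounds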
We begin with a simple list: items and their reported composite z-score.
value.kind: composite z-score

compound | value.kind | result.number
CCOC(=O)C1=CCC(c2ccco2)N(S(=O)(=O)c2ccc(C)cc2)C1 (stereo not drawn) | composite z-score | 0.0841
C=CCOC(=O)[C@H]1[C@@H]2C(=O)O[C@@H](c3ccccc3)[C@@H](c3ccccc3)N2[C@@H](c2ccc(OCCOC(=O)[C@H]3C[C@H]4C(=O)N[C@@H](CCCCNC(C)=O)C(=O)N4[C@H]3c3cccc(OCCO)c3)cc2)[C@]12C(=O)Nc1ccc(I)cc12 | composite z-score | -0.431
C=C(CCCC)C(=O)CC[C@H](OC(=O)c1ccccc1-c1ccccc1C(=O)O)c1ccccc1OCCO | composite z-score | -0.179
C=CCNC(=O)[C@@H]1[C@H]2C(=O)O[C@H](c3ccccc3)[C@H](c3ccccc3)N2[C@H](c2ccc(OCCO)cc2)[C@@]12C(=O)N(C(=O)OCCOC)c1ccc(C#CCCO)cc12 | composite z-score | -0.0521
NC(=O)[C@H]1[C@@H]2C(=O)O[C@@H](c3ccccc3)[C@@H](c3ccccc3)N2[C@@H](c2ccc(O)cc2)[C@]12C(=O)Nc1ccc(C#CC3=CCCCC3)cc12 | composite z-score | -0.128
CCOC(=O)C[C@H]1[C@H](OC(=O)c2ccc(-c3ccccc3)cc2)[C@@H](NC(=O)CC(C)C)c2cc(OCCCO)ccc2N1C(=O)c1ccccc1 | composite z-score | -0.0963
NC(=O)NCC#Cc1ccc2c(c1)[C@]1(C(=O)N2)[C@H](C(=O)N2CCN(c3ncccn3)CC2)[C@H]2C(=O)O[C@H](c3ccccc3)[C@H](c3ccccc3)N2[C@@H]1c1ccc(OCCO)cc1 | composite z-score | 0.0391
CCCCCN1CC=CC23O[C@@H]4/C=C\CCC(C)OC(=O)C4[C@H]2C(=O)N(CCCCCCO)[C@@H]3C1=O (stereo partly drawn) | composite z-score | -0.153
CCCCNC(=O)c1ccc(C#C[Si](C(C)C)(C(C)C)C(C)C)c(OC(C)=O)c1 | composite z-score | -0.187
Cc1nc2cc(Br)ccc2c(=O)n1Cc1cccc(O)c1 | composite z-score | -0.0567
CCOC(=O)C1=CCC(c2ccccc2)N(S(=O)(=O)c2ccc([N+](=O)[O-])cc2)C1 (stereo not drawn) | composite z-score | -0.128
CN(C)CCCCCCNC(=O)[C@@H]1C[C@@H]2C(=O)N[C@@H](CCCCN)C(=O)N2[C@@H]1c1ccc(O)cc1 | composite z-score | 1.93
[N-]=[N+]=NCc1ccccc1C[C@]1(C(=O)N2CCOCC2)COC(c2ccc(OCCCO)cc2)=N1 | composite z-score | 0.0888
CC(C)C[C@@H]1NC(=O)CNC(=O)[C@@]23C(=O)N[C@@H](Cc4ccccc4)C2[C@H](C)[C@@]2(C)O[C@H]2C3/C=C/C/C=C\CNC1=O (stereo partly drawn) | composite z-score | -0.0494
COCC(=C=CC[C@@H](O)c1cccc(OCCO)c1)CCO | composite z-score | 0.0051
COCCCNC(=O)[C@@]1(Sc2ccc(C)cc2)CC(=O)N(Cc2ccccc2Cl)[C@@H]1c1ccc(CO)cc1I | composite z-score | -0.128
COC(=O)[C@@]1(Cc2ccc(OC)cc2)[C@H]2c3cc(C(=O)N4CCCC4)n(Cc4ccc(S(C)(=O)=O)cc4)c3C[C@H]2CN1C(=O)c1ccccc1 | composite z-score | 0.102
CN1C(=O)C2C(C1=O)C1C=C(CCCO)C2C(C2CC2)N1Cc1cc2c(cc1Br)OCO2 (stereo not drawn) | composite z-score | 0.0569
